- TEST: in vitro
- Type: cell-based, human
- CONDITION CONTEXT: human, 50 µM, 24 h exposure, ATP content, 5% FBS; read-out: Cytotoxicity (%) Huh-7 cells
What cytotoxicity at 24 h, 50 µM was measured for each of the following?
Please reply with the bare figure in % and do not write the unit itself.

GET /value?item= CCn1c(=O)n2n(c1=O)C1(C(C)C)CCC3(COC(C)=O)CCC4(C)C(=C31)C2CC1C2(C)CCC(OC(C)=O)C(C)(C)C2CCC14C (centres unmarked) [Compound 43] &field=cytotoxicity at 24 h, 50 µM returns 85

GET /value?item= C=C(C)[C@@H]1CC[C@]2(COC(=O)c3ccccc3NC(C)=O)CC[C@]3(C)C(CCC4[C@@]5(C)CC[C@H](O)C(C)(C)C5CC[C@]43C)C12 (some centres unmarked) [Compound 5, 28-O-(N-acetylanthraniloyl)betulin] &field=cytotoxicity at 24 h, 50 µM returns 30

GET /value?item= CC(=O)OCC12CCC3(C(C)C)C1=C1C(CC4C5(C)CCC(OC(C)=O)C(C)(C)C5CCC4(C)C1(C)CC2)n1c(=O)n(-c2cccc([N+](=O)[O-])c2)c(=O)n13 (centres unmarked) [Compound 38] &field=cytotoxicity at 24 h, 50 µM returns 8.3

GET /value?item= CC(=O)OCC12CCC3(C(C)C)C1=C1C(CC4C5(C)CCC(OC(C)=O)C(C)(C)C5CCC4(C)C1(C)CC2)n1c(=O)n(-c2ccc4c(c2)OCO4)c(=O)n13 (centres unmarked) [Compound 35] &field=cytotoxicity at 24 h, 50 µM returns -0.1

GET /value?item= C=C(C)[C@@H]1CC[C@]2(CO)CC[C@]3(C)[C@H](CC[C@@H]4[C@@]5(C)CC[C@H](O)C(C)(C)[C@@H]5CC[C@]43C)[C@@H]12 [Compound 1, lup-20(29)-ene-3β, 28-diol] &field=cytotoxicity at 24 h, 50 µM returns 14

* * *

- Tested on: S. aureus ATCC 25923
- TEST: Broth microdilution assay, S. aureus
- Format: cell-based, Staphylococcus aureus
- CONDITION CONTEXT: 50 µM, 24 h, inhibition of growth, mean ± SD
ASSAY READOUT: Inhibitory effect (%) S. aureus ATCC 25923
Please reply with the bare figure in % and do not write the unit itself.

I looked up C=C(C)C1CCC2(COS(C)(=O)=O)CCC3(C)C(CCC4C5(C)CCC(OC(C)=O)C(C)(C)C5CCC43C)C12 (stereo not drawn) [Compound 13] and its Inhibitory effect (%) S. aureus ATCC 25923 for S. aureus ATCC 25923 was -16.5

I looked up CC(C)C(=O)OCC12CCC3(C(C)C)C1=C1C(CC4C5(C)CCC(OC(=O)C(C)C)C(C)(C)C5CCC4(C)C1(C)CC2)n1c(=O)n(C)c(=O)n13 (stereo not drawn) [Compound 47] and its Inhibitory effect (%) S. aureus ATCC 25923 for S. aureus ATCC 25923 was 2.9

I looked up CC(C)C12CCC3(COC(=O)C4CCCCC4)CCC4(C)C(=C31)C(CC1C3(C)CCC(OC(=O)C5CCCCC5)C(C)(C)C3CCC14C)n1c(=O)n(C(C)(C)C)c(=O)n12 (stereo not drawn) [Compound 51] and its Inhibitory effect (%) S. aureus ATCC 25923 for S. aureus ATCC 25923 was 7.5
